pIC50: −log10 of the molar value.
pIC50, Rat liver DHFR (Rattus norvegicus): measured values
EXPERIMENTAL_READOUT: pIC50

| GIVEN_SMILES | EXPERIMENTAL_READOUT | MEASURED_NUMBER |
| --- | --- | --- |
| CC1(C)N=C(N)N=C(N)N1c1ccc(Cl)cc1 | pIC50 | 5.76 |
| CCc1nc(N)nc(N)c1-c1ccc(Cl)cc1 | pIC50 | 5.88 |
| CC1(C)N=C(N)N=C(N)N1OCCCOc1cc(Cl)c(Cl)cc1Cl | pIC50 | 9.09 |
| CC1(C)N=C(N)N=C(N)N1OCCCOc1ccc(OC(F)(F)F)cc1Cl | pIC50 | 7.65 |

* * *

- SYSTEM_TESTED: hDHFR (Homo sapiens, UniProt P00374)
- Construct: made in house
- Sequence (P00374 1-187): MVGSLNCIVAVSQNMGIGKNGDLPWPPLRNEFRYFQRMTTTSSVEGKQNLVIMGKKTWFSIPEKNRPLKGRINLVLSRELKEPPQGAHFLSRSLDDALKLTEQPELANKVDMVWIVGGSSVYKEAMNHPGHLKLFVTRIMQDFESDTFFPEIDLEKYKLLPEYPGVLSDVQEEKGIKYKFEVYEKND
- PROCEDURE_SUMMARY: Plate reader DHFR assay, recombinant human DHFR
- Assay type: biochemical
- CONDITION_INFO: text to Figure 5 and Table 2; read-out: IC50 for human DHFR
- From the text: DHFR from T. gondii prepared as above was also directly compared to purified recombinant P. falciparum DHFR (pfDHFR) and purified recombinant human DHFR (hDHFR). The hDHFR was from pDFR plasmid. […] The same buffer as used in the other assays comparing T. gondii DHFR with DHFRs from rat liver P. carinii and M. avium intracellulare was used but the maximal activity, temperature, and length of observation were adjusted for assays on the specific plate reader. […]

| GIVEN_SMILES | IC50 / nM |
| --- | --- |
| CC1(C)N=C(N)N=C(N)N1OCCCOc1ccc(OC(F)(F)F)cc1Cl | 150 |

* * *

- SYSTEM_TESTED: TgDHFR (Toxoplasma gondii, UniProt Q07422)
- Construct: DHFR from T. gondii was isolated directly from RH strain T. gondii grown in culture; endogenous in cells; host or cells: RH strain T. gondii grown on CHO/dhfr- cells
- Sequence (Q07422 whole entry): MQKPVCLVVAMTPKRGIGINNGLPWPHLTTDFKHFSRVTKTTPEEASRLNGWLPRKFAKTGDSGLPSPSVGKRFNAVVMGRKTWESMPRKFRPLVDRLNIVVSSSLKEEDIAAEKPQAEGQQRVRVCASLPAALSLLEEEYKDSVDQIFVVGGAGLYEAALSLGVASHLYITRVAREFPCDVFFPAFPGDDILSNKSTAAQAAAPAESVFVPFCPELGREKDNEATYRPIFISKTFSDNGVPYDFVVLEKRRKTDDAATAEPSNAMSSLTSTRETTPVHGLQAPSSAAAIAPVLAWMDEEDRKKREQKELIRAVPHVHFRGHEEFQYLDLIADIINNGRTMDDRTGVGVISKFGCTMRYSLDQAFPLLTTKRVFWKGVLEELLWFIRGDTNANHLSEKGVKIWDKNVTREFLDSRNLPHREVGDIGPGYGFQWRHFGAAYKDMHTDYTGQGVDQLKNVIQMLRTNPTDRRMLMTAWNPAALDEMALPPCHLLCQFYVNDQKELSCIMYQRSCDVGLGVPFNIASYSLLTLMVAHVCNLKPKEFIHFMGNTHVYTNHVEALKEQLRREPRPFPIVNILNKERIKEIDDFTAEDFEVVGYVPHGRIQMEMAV
- PROCEDURE_SUMMARY: biochemical
- Type: biochemical
- CONDITION_INFO: Tg lysate, 23°C; (95% Confidence Intervals)
EXPERIMENTAL_READOUT: IC50 (nM)

| GIVEN_SMILES | UNIT_ABBREV | MEASURED_NUMBER |
| --- | --- | --- |
| CC1(C)N=C(N)N=C(N)N1OCCCOc1ccc(OC(F)(F)F)cc1Cl | nM | 32 |

* * *

- SYSTEM_TESTED: TgDHFR (Toxoplasma gondii)
- Construct: DHFR from T. gondii was isolated directly from RH strain T. gondii grown in culture; endogenous in cells; host or cells: RH strain T. gondii grown on CHO/dhfr- cells
- PROCEDURE_SUMMARY: biochemical
- Type: biochemical
pIC50: −log10 of the molar value.

| GIVEN_SMILES | pIC50 |
| --- | --- |
| CC1(C)N=C(N)N=C(N)N1c1ccc(Cl)cc1 | 6.39 |

* * *

- SYSTEM_TESTED: PfDHFR (Plasmodium falciparum, UniProt Q8I1R6)
- Sequence (Q8I1R6 entry or part of it): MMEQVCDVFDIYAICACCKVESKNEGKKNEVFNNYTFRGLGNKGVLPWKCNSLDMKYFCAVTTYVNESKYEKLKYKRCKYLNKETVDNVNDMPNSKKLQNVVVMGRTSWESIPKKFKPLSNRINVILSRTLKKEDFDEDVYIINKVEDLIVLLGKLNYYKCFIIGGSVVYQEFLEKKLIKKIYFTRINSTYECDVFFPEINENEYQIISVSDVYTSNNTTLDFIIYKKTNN
- PROCEDURE_SUMMARY: Plate reader DHFR assay, recombinant P. falciparum DHFR
- Format: biochemical
- CONDITION_INFO: recombinant, 23°C; (95% Confidence Intervals); read-out: PfDHFR IC50
EXPERIMENTAL_READOUT: IC50 (nM)

| COMPOUND | SYSTEM_TESTED | EXPERIMENTAL_READOUT | UNIT_ABBREV | MEASURED_NUMBER |
| --- | --- | --- | --- | --- |
| CC1(C)N=C(N)N=C(N)N1OCCCOc1ccc(OC(F)(F)F)cc1Cl [JPC-2067-B] | PfDHFR (Plasmodium falciparum, UniProt Q8I1R6) | IC50 | nM | 3.88 |

* * *

- SYSTEM_TESTED: hDHFR (Homo sapiens, UniProt P00374)
- Construct: made in house
- PROCEDURE_SUMMARY: Plate reader DHFR assay, recombinant human DHFR
- Assay type: biochemical
- CONDITION_INFO: recombinant, 23°C; (95% Confidence Intervals); read-out: hDHFR IC50
- Text: DHFR from T. gondii prepared as above was also directly compared to purified recombinant P. falciparum DHFR (pfDHFR) and purified recombinant human DHFR (hDHFR). The hDHFR was from pDFR plasmid. […] The same buffer as used in the other assays comparing T. gondii DHFR with DHFRs from rat liver P. carinii and M. avium intracellulare was used but the maximal activity, temperature, and length of observation were adjusted for assays on the specific plate reader. […]

| GIVEN_SMILES | UNIT_ABBREV | IC50 |
| --- | --- | --- |
| CC1(C)N=C(N)N=C(N)N1OCCCOc1ccc(OC(F)(F)F)cc1Cl | nM | 148 |

* * *

- SYSTEM_TESTED: Mav DHFR (Mycobacterium avium, UniProt O30463)
- Construct: the bacteria were centrifuged, sonicated, and the 100,000 Xg supernate was stored under liquid nitrogen until assay; endogenous in cells
- Sequence (O30463 1-181): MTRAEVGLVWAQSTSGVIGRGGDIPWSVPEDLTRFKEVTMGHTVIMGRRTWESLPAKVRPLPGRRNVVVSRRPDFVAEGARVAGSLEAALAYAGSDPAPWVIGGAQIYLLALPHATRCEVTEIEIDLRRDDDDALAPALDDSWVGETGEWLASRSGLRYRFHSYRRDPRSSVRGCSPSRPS
- PROCEDURE_SUMMARY: Spectrophotometric DHFR assay, Mycobacterium avium-intracellulare DHFR
- CONDITION_INFO: 37°C; (95% confidence limits)
The following compounds are shown together with reported IC50 values.
EXPERIMENTAL_READOUT: IC50 (nM)

| COMPOUND | UNIT_ABBREV | MEASURED_NUMBER |
| --- | --- | --- |
| CC1(C)N=C(N)N=C(N)N1OCCCOc1cc(Cl)c(Cl)cc1Cl [JPC-208-B] | nM | 0.57 |
| CC1(C)N=C(N)N=C(N)N1OCCCOc1ccc(OC(F)(F)F)cc1Cl [JPC-2067-B] | nM | 3.75 |
| CC1(C)N=C(N)N=C(N)N1c1ccc(Cl)cc1 [JPC-2013-B-1, cycloguanil] | nM | 12100 |
| CCc1nc(N)nc(N)c1-c1ccc(Cl)cc1 [JPC-1090-A-1, Pyrimethamine] | nM | 1200 |

* * *

The following compounds are listed with their measured IC50 values.
- SYSTEM_TESTED: Pc DHFR (Pneumocystis carinii)
- Construct: made in house; host or cells: Escherichia coli
- Sequence (P16184 whole entry): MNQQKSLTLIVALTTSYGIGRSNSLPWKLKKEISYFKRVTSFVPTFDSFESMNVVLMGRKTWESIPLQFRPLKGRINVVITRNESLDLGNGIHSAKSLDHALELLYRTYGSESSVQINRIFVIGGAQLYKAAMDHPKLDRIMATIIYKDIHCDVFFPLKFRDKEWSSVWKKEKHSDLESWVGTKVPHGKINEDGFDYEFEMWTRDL
- PROCEDURE_SUMMARY: Spectrophotometric DHFR assay, Pneumocystis carinii DHFR
- Assay type: biochemical

| GIVEN_SMILES | IC50 |
| --- | --- |
| CCc1nc(N)nc(N)c1-c1ccc(Cl)cc1 | 6.17 µM |
| CC1(C)N=C(N)N=C(N)N1c1ccc(Cl)cc1 | 8.9 µM |
